parameter measured: melting point

Inquiry: For CC(=O)OC1CSC(Oc2cccnc2N=CN(C)C)C(OC(C)=O)C1OC(C)=O (stereo not given) , what is its reported melting point?
Reply text: 120 °C

Inquiry: And the next one, NN1C=NNC1=Cc1ccccc1O ?
Reply text: 210 to 212 °C

Inquiry: And the next one, c1ccc(C(OC2CCN(c3ccc4ncnn4n3)CC2)c2ccccc2)cc1 ?
Reply text: 137 to 139 °C

Inquiry: And the next one, CCOC(=O)OC1CCN(C(=O)OCC)Cc2c1nc1ccccc1c2C (stereo not given) ?
Reply text: 40 °C

Inquiry: And the next one, CCOC(=O)C(CC)(CC)CCCS(N)(=O)=O ?
Reply text: 66 to 67 °C

Inquiry: And the next one, CCN(CC)CCn1c2c(c3ccccc31)CCS(=O)(=O)CCC2 ?
Reply text: 118 to 120 °C

Inquiry: And the next one, CNC(=O)Cn1c(-c2ccc(Br)o2)nc2cccnc21 ?
Reply text: 187 to 191 °C

Inquiry: And the next one, CC1OC(=Nc2nccs2)c2c1nc1ccccc1c2O (stereo not given) ?
Reply text: > 270 °C

Inquiry: And the next one, Cc1c[nH]c2c(=O)n(CC(=O)N[C@H](C=O)CC(=O)O)cnc12 ?
Reply text: 222 to 226 °C

Inquiry: And the next one, CCCCCCCCCCCCc1ccccc1C(Sc1nc(CCC)c(C(=O)O)n1C)C(=O)O (stereo not given) ?
Reply text: 124 to 125 °C

---

For each entry below, report its melting point value.

Inquiry: For CC1N(CCCCCl)C(=O)C(C)(C)S1(=O)=O (stereo unspecified) , what is its reported melting point?
Reply text: 71 to 73 °C

Inquiry: And the next one, O=C(O)c1cc(OCc2ccccc2)c(OCc2ccccc2)cn1 ?
Reply text: 204 °C

Inquiry: And the next one, Cn1cc(F)cnc1=O ?
Reply text: 177 to 178 °C

Inquiry: And the next one, Cc1cc(C(=O)C(F)(F)F)ccc1NC(=O)OC(C)(C)C ?
Reply text: 85 to 87 °C

Inquiry: And the next one, COc1cc2ccc(C(=O)CCCCBr)cc2cc1OC ?
Reply text: 93 to 95 °C

Inquiry: And the next one, O=C(Cc1ccnc(Cl)n1)c1ccc(F)cc1 ?
Reply text: 112 to 113 °C

Inquiry: And the next one, CC(Nn1cncn1)(c1ccc(F)cc1)c1ccc(F)cc1 ?
Reply text: 114 to 119 °C

Inquiry: And the next one, NCc1cc(Cl)ccc1O ?
Reply text: 160 to 162 °C

Inquiry: And the next one, Cn1cc(CC(SSC(Cc2cn(C)c3ccccc23)C(=O)O)C(=O)O)c2ccccc21 (stereo unspecified) ?
Reply text: 158 to 160 °C

Inquiry: And the next one, CCOc1ccc(C(=O)Nc2c(Cl)cncc2Cl)c2c3ccccc3n(Cc3ccccc3)c12 ?
Reply text: 210 to 213 °C

Inquiry: And the next one, Cc1ccc(S(=O)(=O)NN=C2CCCCCCCC2)cc1 ?
Reply text: 135 to 138 °C

Inquiry: And the next one, CN1C(=O)N(c2cc(Cl)cc(Cl)c2)C(=O)/C1=C\c1ccc(C#N)cc1 ?
Reply text: 239 to 241 °C

Inquiry: And the next one, CCOc1ccc([N+](=O)[O-])c(NC2CCCCCC2)c1 ?
Reply text: 83 °C

Inquiry: And the next one, CCOC(=O)C1=C(C)NC(C)=C(C#N)C1c1ccnc2ncc(-c3ccccc3)cc12 (stereo unspecified) ?
Reply text: 265 °C

Inquiry: And the next one, Cc1cccc(N(C)C(=O)NC2N=C(c3ccccc3F)c3ccccc3N(CC(=O)N3CC4CCC(CC4)C3)C2=O)c1 (racemic) ?
Reply text: 207 to 212 °C

Inquiry: And the next one, Cc1ncc2n1-c1ccc(Cl)cc1N(c1ccccc1)C(=O)C2 ?
Reply text: 276 to 278 °C

Inquiry: And the next one, COc1ccc(-c2ccc(C(=O)O)cc2)cc1 ?
Reply text: 250 to 254 °C

Inquiry: And the next one, O=c1[nH]c2cccc(C(F)(F)F)c2c(=O)o1 ?
Reply text: 232 to 233 °C

Inquiry: And the next one, COc1ccc(N2CCN(c3c(C)c(C)c4c(c3C)C(=O)C(C)(C)O4)CC2)cc1 ?
Reply text: 144 to 146 °C

Inquiry: And the next one, C#CCn1cc(C(=O)OCC)c(C(F)(F)F)c1 ?
Reply text: 58 °C

Inquiry: And the next one, CCOP(=O)(CNc1ccc(Cl)cc1[N+](=O)[O-])OCC ?
Reply text: 94 to 95 °C

Inquiry: And the next one, CCOC(=O)C1=C(c2ccc(-n3c(C)nc4cnccc43)cc2)NC(=O)NC1c1ccccc1Cl (stereo unspecified) ?
Reply text: > 300 °C

Inquiry: And the next one, COc1ncccc1NC(=NC#N)NC(NC(=O)c1cc(Cl)cc(Cl)c1)C(C)(Cl)Cl (stereo unspecified) ?
Reply text: 149 to 150 °C

Inquiry: And the next one, C/C(=C\c1ccc2c(c1)OCO2)C(=O)O ?
Reply text: 205 °C

Inquiry: And the next one, CC(C)NC(=O)C(O)C(Cc1ccccc1)NC(=O)OC(C)(C)C (mixture of isomers) ?
Reply text: 126 to 145 °C

Inquiry: And the next one, Cc1[nH]n(-c2ccccc2)c(=O)c1C(=O)C(C)C ?
Reply text: 61 to 62 °C

Inquiry: And the next one, NCc1cccc(OCCC2Oc3ccccc3N(Cc3cccc(Cl)c3)C2=O)c1 (stereo unspecified) ?
Reply text: 124 to 129 °C

Inquiry: And the next one, CCN1c2ncc(COc3ccncc3)cc2C(=O)N(C)c2ccc(Cl)nc21 ?
Reply text: 169 to 170 °C

Inquiry: And the next one, CN(C(=O)C(F)(F)F)C1(C)CN(c2nc3c(cc2F)c(=O)c(C(=O)O)cn3C(C)(C)C)C1 ?
Reply text: 263 to 265 °C

Inquiry: And the next one, O=c1c(Cl)c(Cl)cnn1C1CCCCO1 (stereo unspecified) ?
Reply text: 74 to 76 °C

Inquiry: And the next one, COc1cc2nc(SCc3ncc(C)c(N(C)C)c3Cl)[nH]c2cc1OC ?
Reply text: 120 to 122 °C

Inquiry: And the next one, CCOC(=O)NNC(=O)NCC(=O)OC ?
Reply text: 116 to 121 °C

Inquiry: And the next one, NC(=O)c1[nH]c2ccccc2c1-c1ccc(NC(=O)Nc2ccc(C(F)(F)F)c(Cl)c2)cc1 ?
Reply text: 168 to 170 °C

Inquiry: And the next one, COc1ccc(F)cc1C(C)(C)CC(O)(CN1CC(C)NC(C)C1)C(F)(F)F (stereo unspecified) ?
Reply text: 61 to 62 °C

Inquiry: And the next one, CCCCc1cnc2ccc(C(=O)O)cc2c1O ?
Reply text: 260 °C

Inquiry: And the next one, CC1CCCN(c2cc(F)cc(C(=O)Nc3ccc(OCCN4CCOCC4)c4ccccc34)c2)C1 (stereo unspecified) ?
Reply text: 145 to 148 °C

Inquiry: And the next one, CCOC(=O)c1ccc(NCCCCCCc2ccccc2)cc1 ?
Reply text: 69.5 to 72.5 °C

Inquiry: And the next one, CCOC(=O)Nc1c(F)cc(Cl)c2nc(C(C)(C)C)oc12 ?
Reply text: 127 to 129 °C

Inquiry: And the next one, Nc1c(F)c(F)nc(-n2cc(C(=O)O)c(=O)c3cc(F)c(F)c(Cl)c32)c1F ?
Reply text: 280 to 283 °C

Inquiry: And the next one, CSc1ccccc1CNc1ncnc2c1sc1nc(N3CCCC3)c3c(c12)CC(C)(C)OC3 ?
Reply text: 176 to 177 °C

Inquiry: And the next one, O=c1c2cc3ccccc3cc2oc2cc(OCC3CO3)cc(O)c12 (stereo unspecified) ?
Reply text: 201 to 202 °C

---

parameter measured: melting point

Inquiry: For CCCCCCN(CC(=O)O)CC(=O)O , what is its reported melting point?
Reply text: 130 to 131 °C

Inquiry: And the next one, O=C(O)CCCCCCCCn1c(-c2ccccc2)c(-c2ccccc2)n(-c2ccccc2)c1=O ?
Reply text: 123 to 124 °C

Inquiry: And the next one, CC1=C(C)C(=O)C(CCCOc2ccc(C=C3SC(=O)NC3=O)cc2)=C(C)C1=O ?
Reply text: 230 to 232 °C

Inquiry: And the next one, CS(=O)(=O)n1c(=NC(F)(F)F)oc2ccccc21 ?
Reply text: 142 to 146 °C

Inquiry: And the next one, CCOC(=O)C(=O)Nc1cc(Cl)c(Cl)c(Cl)c1 ?
Reply text: 148 to 151 °C

Inquiry: And the next one, N[C@@H]1C(=O)N[C@@H]1COC(=O)c1ccccc1 (relative stereo) ?
Reply text: 150 to 151 °C

Inquiry: And the next one, CC(C)C(c1cc(Cl)ccc1N1CCCCC1)C(C(N)=O)c1ccc(C(=O)O)cc1 (stereo not given) ?
Reply text: 236 to 240 °C

Inquiry: And the next one, CON=CCCCn1c(C)nc2c(N)nc3ccccc3c21 ?
Reply text: 153 to 155 °C

Inquiry: And the next one, O=C(O)CCCOc1cc(Cn2cc(C3c4ccccc4C=Cc4ccccc43)c(=S)[nH]c2=O)cc(OCC(=O)O)c1 ?
Reply text: 104 to 109 °C

Inquiry: And the next one, CCC(=O)Nc1cccc(C(=O)C=CN(C)C)c1 ?
Reply text: 106 to 108 °C

Ref: a melting point compilation (Tetko et al.; mined from patent text by program, amines drawn as free bases though some values may be those of a salt)
